system: NCI-H1915; experiment: relative viability (nuclei count vs DMSO), 5 days (fraction); higher = more cells survive; settings: first compound 2 µM
readout-kind: relative viability
The answer should be a number; do not append a unit.

See these solved cases before continuing.
CN1CCN(CCOc2cc(OC3CCOCC3)c3c(Nc4c(Cl)ccc5c4OCO5)ncnc3c2)CC1 [Saracatinib] + Cc1cc(Nc2cc(N3CCN(C)CC3)nc(Sc3ccc(NC(=O)C4CC4)cc3)n2)n[nH]1 [Tozasertib] (partner 0.1 µM) ... 0.343
CN1CCN(CCOc2cc(OC3CCOCC3)c3c(Nc4c(Cl)ccc5c4OCO5)ncnc3c2)CC1 [Saracatinib] + COc1cccc2cc(-c3nc([C@H]4CC[C@H](C(=O)O)CC4)n4ncnc(N)c34)[nH]c12 [OSI-027] (partner 0.5 µM) ... 0.474
CN1CCN(CCOc2cc(OC3CCOCC3)c3c(Nc4c(Cl)ccc5c4OCO5)ncnc3c2)CC1 [Saracatinib] + C[C@@H](Oc1cc(-c2cnn(C3CCNCC3)c2)cnc1N)c1c(Cl)ccc(F)c1Cl [Crizotinib] (partner 1 µM) ... 0.875

In the following, a different molecule is considered.
Field request: relative viability | item: CN1CCN(CCOc2cc(OC3CCOCC3)c3c(Nc4c(Cl)ccc5c4OCO5)ncnc3c2)CC1 [Saracatinib] + N=C(N)NC(=N)NCCc1ccccc1 [Phenformin] (partner 250 µM)
0.333

These data points were gathered from the supplement of paper PMC10307832.
